# Test system: NCI-H226
# Experiment Summary: NCI 60 one dose (10 μM) anticancer assay
# Format: cell-based
# Measurement Parameters: Homo sapiens, 10 µM one dose, Non-small cell lung Cancer, read-out: Growth Inhibition % NCI-H226
Below: a set of entries, each annotated with reported inhibition at 10 µM.
Quantity Kind: inhibition at 10 µM

compound="COc1cc(/C=N/NC(=O)Cn2c(C(C)C)nc3ccccc32)ccc1OCc1ccccc1 [Compound 17e]" quantity_kind="inhibition at 10 µM" result="< 10%"
compound="CC(C)c1nc2ccccc2n1CC(=O)N/N=C/c1ccc(OCc2ccccc2)cc1 [Compound 17c]" quantity_kind="inhibition at 10 µM" result="< 10%"
compound="Cc1ccc(-c2nc3ccccc3n2CC(=O)N/N=C/c2ccc(OCc3ccccc3)cc2)o1 [Compound 17d]" quantity_kind="inhibition at 10 µM" result="< 10%"
